Attribution: paper PMC4204995

Tested on: A/Hong Kong/X31 (H3N2)
ASSAY_INFO: microbe, parasite or virus in culture
Type: cell-based, influenza A virus
TEST_CONTEXT: read-out: EC50 values, A/Hong Kong/X31 (H3N2)
ENDPOINT: pEC50
pEC50 (log units): -log10 of the concentration in mol/L.

COMPOUND	pEC50
CCC(CC)O[C@@H]1C=C(C(=O)O)C[C@H](N)[C@H]1NC(C)=O [Oseltamivir carboxylate]	9.13

# input for lookup
Reading of pEC50 for CCN(CC)CCCCCCCCOC(=O)c1cc(OC)c(OC)c(OC)c1.Cl [TMB-8, TMB-8 hydrochloride] with A/Hong Kong/X31 (H3N2): 4.66

###

Test system: viral acidic polymerase (PA) expression, PR8 virus
Format: cell-based, influenza A virus
Counter-ions that a name gives are not always drawn.
ENDPOINT: decrease of PA expression

COMPOUND	decrease of PA expression
CNc1ccc2oc(C[C@H]3O[C@@]4(CC[C@H]3C)O[C@H]([C@H](C)C(=O)c3ccc[nH]3)[C@H](C)C[C@H]4C)nc2c1C(=O)O	42%
CCN(CC)CCCC(C)Nc1c2ccc(Cl)cc2nc2ccc(OC)cc12 (stereo not drawn) [Quinacrine, quinacrine dihydrochloride]	more than 90%
C=C[C@H]1C[N@@]2CC[C@H]1C[C@H]2[C@H](O)c1ccnc2ccc(OC)cc12 [Quinine, Quinine sulfate]	more than 90%
COc1cc(NC(C)CCCN)c2ncccc2c1 (stereo not drawn) [Primaquine, primaquine diphosphate]	62%
CCN(CC)Cc1cc(Nc2ccnc3cc(Cl)ccc23)ccc1O [Amodiaquine, amodiaquin dihydrochloride dihydrate]	82%
C=C[C@H]1C[N@@]2CC[C@H]1C[C@@H]2[C@@H](O)c1ccnc2ccc(OC)cc12 [Quinidine, quinidine anhydrous]	more than 90%
CO/C1=C\C(C)=C\[C@@H](C)[C@@H](O)[C@@H](C)C/C(C)=C/C=C/[C@H](OC)[C@@H]([C@@H](C)[C@@H](O)[C@H](C)[C@@]2(O)C[C@@H](O)[C@H](C)[C@@H](C(C)C)O2)OC1=O	more than 90%

Sample OC(c1cc(C(F)(F)F)nc2c(C(F)(F)F)cccc12)C1CCCCN1 (stereo not drawn) [Mefloquine, mefloquine hydrochloride] ; decrease of PA expression observed: 82%

###

System: A/Puerto Rico/8/34 (H1N1)
ASSAY_INFO: microbe, parasite or virus in culture
Type: cell-based, influenza A virus
TEST_CONTEXT: read-out: EC50 values, A/Puerto Rico/8/34 (H1N1)
ENDPOINT: pEC50
pEC50 (log units): -log10 of the concentration in mol/L.

MOLECULE	ENDPOINT	QUANTITATIVE_READOUT
CCN(CC)CCCCCCCCOC(=O)c1cc(OC)c(OC)c(OC)c1.Cl [TMB-8, TMB-8 hydrochloride]	pEC50	5.60

# input for lookup
Sample CO/C1=C\C(C)=C\[C@@H](C)[C@@H](O)[C@@H](C)C/C(C)=C/C=C/[C@H](OC)[C@@H]([C@@H](C)[C@@H](O)[C@H](C)[C@@]2(O)C[C@@H](O)[C@H](C)[C@@H](C(C)C)O2)OC1=O ; pEC50 observed: 8.40

###

Tested on: MDCK cells
ENDPOINT: CC50

Reading of CC50 for CCC(CC)O[C@@H]1C=C(C(=O)O)C[C@H](N)[C@H]1NC(C)=O [Oseltamivir carboxylate] with MDCK cells: > 1000 µM

###

ASSAY_INFO: in vitro
TEST_CONTEXT: dog
Where a name gives a salt, the structure may show the parent alone.
ENDPOINT: CC50 at 2 days (µM)
Numeric only. Scale: µM

Sample CN(C)c1nc(N)c(C(=O)NC(=N)N)nc1Cl [5-(N,N-Dimethyl)amiloride hydrochloride, 5-(N,N-Dimethyl) amiloride hydrochloride] ; CC50 at 2 days observed: 175

###

System: A/Puerto Rico/8/34 (H1N1)
ASSAY_INFO: microbe, parasite or virus in culture
Type: cell-based
TEST_CONTEXT: Influenza A virus, H1N1 / PR8, Calu-3, 48 h, read-out: EC50 values
pEC50: −log10 of the molar value. Structures can show the parent of a compound that is named as a salt.
ENDPOINT: pEC50

COMPOUND	pEC50
CCN(CC)Cc1cc(Nc2ccnc3cc(Cl)ccc23)ccc1O [Amodiaquine, amodiaquin dihydrochloride dihydrate]	5.60 to 5.90

Sample COc1ccc(CCN(C)CCCC(C#N)(c2ccc(OC)c(OC)c2)C(C)C)cc1OC (centres unmarked) [Verapamil, verapamil hydrochoride] ; pEC50 observed: 5.60 to 5.90

###

Tested on: MDCK cells
ASSAY_INFO: XTT cytotoxicity assay in MDCK cells
TEST_CONTEXT: footnote c: [ ] in nM; XTT cell viability, MDCK cells, 2 days
ENDPOINT: CC50 (nM)
Numeric only. Scale: nM

Sample CO/C1=C\C(C)=C\[C@@H](C)[C@@H](O)[C@@H](C)C/C(C)=C/C=C/[C@H](OC)[C@@H]([C@@H](C)[C@@H](O)[C@H](C)[C@@]2(O)C[C@@H](O)[C@H](C)[C@@H](C(C)C)O2)OC1=O ; CC50 observed: 16.8

###

ASSAY_INFO: XTT cytotoxic assay in Calu-3 cells
Type: cell-based
TEST_CONTEXT: human
Where a name gives a salt, the structure may show the parent alone.
ENDPOINT: CC50 (µM)
Numeric only. Scale: µM

Sample CCN(CC)Cc1cc(Nc2ccnc3cc(Cl)ccc23)ccc1O [Amodiaquine, amodiaquin dihydrochloride dihydrate] ; CC50 observed: 53.6

###

ASSAY_INFO: in vitro
TEST_CONTEXT: dog
Structures can show the parent of a compound that is named as a salt.
ENDPOINT: log10 CC50 (log10 of the value in µM)
Short version: log10 scale, CC50, µM.

Some entries whose results are on file:
COMPOUND	log10 CC50
C=C[C@H]1C[N@@]2CC[C@H]1C[C@@H]2[C@@H](O)c1ccnc2ccc(OC)cc12 [Quinidine, quinidine anhydrous]	2.22
C=C[C@H]1C[N@@]2CC[C@H]1C[C@H]2[C@H](O)c1ccnc2ccc(OC)cc12 [Quinine, Quinine sulfate]	2.61
CCN(CC)CCCC(C)Nc1c2ccc(Cl)cc2nc2ccc(OC)cc12 (centres unmarked) [Quinacrine, quinacrine dihydrochloride]	1.16
OC(c1cc(C(F)(F)F)nc2c(C(F)(F)F)cccc12)C1CCCCN1 (centres unmarked) [Mefloquine, mefloquine hydrochloride]	1.36

# input for lookup
Sample CCN(CC)Cc1cc(Nc2ccnc3cc(Cl)ccc23)ccc1O [Amodiaquine, amodiaquin dihydrochloride dihydrate] ; log10 CC50 observed: 1.42

###

ASSAY_INFO: XTT cytotoxicity assay in MDCK cells
TEST_CONTEXT: dog
Form field: CC50 at 2 days (one value per entry).
Numeric only. Scale: µM

COMPOUND	ENDPOINT_UNIT	CC50 at 2 days
CNc1ccc2oc(C[C@H]3O[C@@]4(CC[C@H]3C)O[C@H]([C@H](C)C(=O)c3ccc[nH]3)[C@H](C)C[C@H]4C)nc2c1C(=O)O [A23187 (calcimycin), calcimycin (A23187)]	µM	0.413

Sample COc1cc(CNC(=O)CCCC/C=C/C(C)C)ccc1O [Capsaicin, capsaicin] ; CC50 at 2 days observed: 157

###

Test system: A/California-like/2009 (H1N1)
ASSAY_INFO: microbe, parasite or virus in culture
Assay type: cell-based, influenza A virus
TEST_CONTEXT: Influenza A virus, H1N1, MDCK, read-out: EC50 values, A/California-like/2009 (H1N1), result as symbol
pEC50: −log10 of the molar value. Counter-ions that a name gives are not always drawn.
ENDPOINT: pEC50

Sample OC(c1cc(C(F)(F)F)nc2c(C(F)(F)F)cccc12)C1CCCCN1 (stereo not shown) [Mefloquine, mefloquine hydrochloride] ; pEC50 observed: < 4.64
